Where do the numbers come from? From the supplement of paper PMC11316812.

- Tested on: MCF7
- assay.text: percentage of EdU-negative (G0-arrested) nuclei per well, 72 h; higher = more G0 arrest
- measurement.parameters: protein concentration 0.0225 µM; reference: sequence is the full UniProt precursor, the tested protein was the secreted form or ectodomain
reported.property: percentage of EdU-negative (%)
One number for each entry, in %.

In: What does the record list as percentage of EdU-negative for `MPRRSLHAAAVLLLVILKEQPSSPAPVNGSKWTYFGPDGENSWSKKYPSCGGLLQSPIDLHSDILQYDASLTPLEFQGYNLSANKQFLLTNNGHSVKLNLPSDMHIQGLQSRYSATQLHLHWGNPNDPHGSEHTVSGQHFAAELHIVHYNSDLYPDASTASNKSEGLAVLAVLIEMGSFNPSYDKIFSHLQHVKYKGQEAFVPGFNIEELLPERTAEYYRYRGSLTTPPCNPTVLWTVFRNPVQISQEQLLALETALYCTHMDDPSPREMINNFRQVQKFDERLVYTSFSQVQVCTAAGLSLGIILSLALAGILGICIVVVVSIWLFRRKSIKKGDNKGVIYKPATKMETEAHA` ?
Out: 26

* * *

- Test system: MCF7
- assay.text: percentage of EdU-negative (G0-arrested) nuclei per well, 72 h; higher = more G0 arrest
- measurement.parameters: protein concentration 0.0225 µM; reference: sequence is the full UniProt precursor, the tested protein was the secreted form or ectodomain
Task for the reader: assign each of the following sequences its reported percentage of EdU-negative.
Numbers only, in %.

Known results for sequences:
{"columns": ["residue.sequence", "unit.descriptor", "recorded.value"],
 "data": [
  ["MQIITTALVCLLLAGMWPEDVDSKSMQVPFSRCCFSFAEQEIPLRAILCYRNTSSICSNEGLIFKLKRGKEACALDTVGWVQRHRKMLRHCPSKRK", "%", 24.1],
  ["MKLLFPIFASLMLQYQVNTEFIGLRRCLMGLGRCRDHCNVDEKEIQKCKMKKCCVGPKVVKLIKNYLQYGTPNVLNEDVQEMLKPAKNSSAVIQRKHILSVLPQIKSTSFFANTNFVIIPNATPMNSATISTMTPGQITYTATSTKSNTKESRDSATASPPPAPPPPNILPTPSLELEEAEEQ [Q9H1M3]", "%", 23.2],
  ["MFFWCACCLMVAWRVSASDAEHCPELPPVDNSIFVAKEVEGQILGTYVCIKGYHLVGKKTLFCNASKEWDNTTTECRLGHCPDPVLVNGEFSSSGPVNVSDKITFMCNDHYILKGSNRSQCLEDHTWAPPFPICKSRDCDPPGNPVHGYFEGNNFTLGSTISYYCEDRYYLVGVQEQQCVDGEWSSALPVCKLIQEAPKPECEKALLAFQESKNLCEAMENFMQQLKESGMTMEELKYSLELKKAELKAKLL", "%", 24.2]
]}

Consider the additional sequence presented here.
In: Bench note: what percentage of EdU-negative did `MESSRVRLLPLLGAALLLMLPLLGTRAQEDAELQPRALDIYSAVDDASHEKELIEALQEVLKKLKSKRVPIYEKKYGQVPMCDAGEQCAVRKGARIGKLCDCPRGTSCNSFLLKCL` show?
Out: 28.1

* * *

Give percentage of EdU-negative for every item shown.
- Tested on: MCF7
- assay.text: percentage of EdU-negative (G0-arrested) nuclei per well, 72 h; higher = more G0 arrest
- measurement.parameters: protein concentration 0.03125 µM; reference: sequence is the full UniProt precursor, the tested protein was the secreted form or ectodomain
Answers are plain numbers, in %.

A selection of reference data follows.
{"columns": ["residue.sequence", "system.tested", "unit.descriptor", "percentage of EdU-negative"],
 "data": [
  ["MRFLAATFLLLALSTAAQAEPVQFKDCGSVDGVIKEVNVSPCPTQPCQLSKGQSYSVNVTFTSNIQSKSSKAVVHGILMGVPVPFPIPEPDGCKSGINCPIQKDKTYSYLNKLPVKSEYPSIKLVVEWQLQDDKNQSLFCWEIPVQIVSHL", "MCF7", "%", 25.6],
  ["MTSSLLLAFLLLAPTTVATPRAGGQCPACGGPTLELESQRELLLDLAKRSILDKLHLTQRPTLNRPVSRAALRTALQHLHGVPQGALLEDNREQECEIISFAETGLSTINQTRLDFHFSSDRTAGDREVQQASLMFFVQLPSNTTWTLKVRVLVLGPHNTNLTLATQYLLEVDASGWHQLPLGPEAQAACSQGHLTLELVLEGQVAQSSVILGGAAHRPFVAARVRVGGKHQIHRRGIDCQGGSRMCCRQEFFVDFREIGWHDWIIQPEGYAMNFCIGQCPLHIAGMPGIAASFHTAVLNLLKANTAAGTTGGGSCCVPTARRPLSLLYYDRDSNIVKTDIPDMVVEACGCS", "MCF7", "%", 25.8],
  ["MKFTIVFAGLLGVFLAPALANYNINVNDDNNNAGSGQQSVSVNNEHNVANVDNNNGWDSWNSIWDYGNGFAATRLFQKKTCIVHKMNKEVMPSIQSLDALVKEKKLQGKGPGGPPPKGLMYSVNPNKVDDLSKFGKNIANMCRGIPTYMAEEMQEASLFFYSGTCYTTSVLWIVDISFCGDTVEN [Q9NS71]", "MCF7", "%", 23],
  ["MAGPATQSPMKLMALQLLLWHSALWTVQEATPLGPASSLPQSFLLKCLEQVRKIQGDGAALQEKLVSECATYKLCHPEELVLLGHSLGIPWAPLSSCPSQALQLAGCLSQLHSGLFLYQGLLQALEGISPELGPTLDTLQLDVADFATTIWQQMEELGMAPALQPTQGAMPAFASAFQRRAGGVLVASHLQSFLEVSYRVLRHLAQP", "MCF7", "%", 25],
  ["MSRLPVLLLLQLLVRPGLQAPMTQTTPLKTSWVNCSNMIDEIITHLKQPPLPLLDFNNLNGEDQDILMENNLRRPNLEAFNRAVKSLQNASAIESILKNLLPCLPLATAAPTRHPIHIKDGDWNEFRRKLTFYLKTLENAQAQQTTLSLAIF", "MCF7", "%", 27.8],
  ["MALSFSLLMAVLVLSYKSICSLGCDLPQTHSLGNRRALILLAQMGRISPFSCLKDRHDFGFPQEEFDGNQFQKAQAISVLHEMIQQTFNLFSTKDSSATWEQSLLEKFSTELNQQLNDLEACVIQEVGVEETPLMNVDSILAVKKYFQRITLYLTEKKYSPCAWEVVRAEIMRSFSLSKIFQERLRRKE", "MCF7", "%", 46.7]
]}

Next up:
In: # lookup: percentage of EdU-negative of `MKLAVTLTLVTLALCCSSASAEICPSFQRVIETLLMDTPSSYEAAMELFSPDQDMREAGAQLKKLVDTLPQKPRESIIKLMEKIAQSSLCN`
Out: 22.8

* * *

- System: MCF7;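 also: secreted proteins added to cultured cells, EdU pulse at the end, nuclei found by Hoechst imaging, EdU status from nuclear versus surrounding ring intensity ratio, PBS as neutral control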
- assay.text: percentage of EdU-negative (G0-arrested) nuclei per well, 72 h; higher = more G0 arrest
- measurement.parameters: protein concentration 0.03125 µM; reference: sequence is the full UniProt precursor, the tested protein was the secreted form or ectodomain
Class T: percentage of EdU-negative at least 30%. Class F: percentage of EdU-negative below 30%.

{"columns": ["residue.sequence", "system.tested", "discrete.label"],
 "data": [
  ["MALPFVLLMALVVLNCKSICSLGCDLPQTHSLSNRRTLMIMAQMGRISPFSCLKDRHDFGFPQEEFDGNQFQKAQAISVLHEMIQQTFNLFSTKDSSATWDETLLDKFYTELYQQLNDLEACMMQEVGVEDTPLMNVDSILTVRKYFQRITLYLTEKKYSPCAWEVVRAEIMRSFSLSANLQERLRRKE", "MCF7", "T"],
  ["MEMLQGLLLLLLLSMGGAWASREPLRPWCHPINAILAVEKEGCPVCITVNTTICAGYCPTMMRVLQAVLPPLPQVVCTYRDVRFESIRLPGCPRGVDPVVSFPVALSCRCGPCRRSTSDCGGPKDHPLTCDHPQLSGLLFL", "MCF7", "F"],
  ["MAPARAGFCPLLLLLLLGLWVAEIPVSAKPKGMTSSQWFKIQHMQPSPQACNSAMKNINKHTKRCKDLNTFLHEPFSSVAATCQTPKIACKNGDKNCHQSHGAVSLTMCKLTSGKHPNCRYKEKRQNKSYVVACKPPQKKDSQQFHLVPVHLDRVL [Q9H1E1]", "MCF7", "F"],
  ["MTPHRLLPPLLLLLALLLAASPGGALARCPGCGQGVQAGCPGGCVEEEDGGSPAEGCAEAEGCLRREGQECGVYTPNCAPGLQCHPPKDDEAPLRALLLGRGRCLPARAPAVAEENPKESKPQAGTARPQDVNRRDQQRNPGTSTTPSQPNSAGVQDTEMGPCRRHLDSVLQQLQTEVYRGAQTLYVPNCDHRGFYRKRQCRSSQGQRRGPCWCVDRMGKSLPGSPDGNGSSSCPTGSSG", "MCF7", "F"],
  ["MALSFSLLMAVLVLSYKSICSLGCDLPQTHSLGNRRALILLAQMGRISHFSCLKDRYDFGFPQEVFDGNQFQKAQAISAFHEMIQQTFNLFSTKDSSAAWDETLLDKFYIELFQQLNDLEACVTQEVGVEEIALMNEDSILAVRKYFQRITLYLMGKKYSPCAWEVVRAEIMRSFSFSTNLQKGLRRKD", "MCF7", "T"]
]}

In: Hello, I need to know if MRIWWLLLAIEICTGNINSQDTCRQGHPGIPGNPGHNGLPGRDGRDGAKGDKGDAGEPGRPGSPGKDGTSGEKGERGADGKVEAKGIKGDQGSRGSPGKHGPKGLAGPMGEKGLRGETGPQGQKGNKGDVGPTGPEGPRGNIGPLGPTGLPGPMGPIGKPGPKGEAGPTGPQGEPGVRGIRGWKGDRGEKGKIGETLVLPKSAFTVGLTVLSKFPSSDMPIKFDKILYNEFNHYDTAAGKFTCHIAGVYYFTYHITVFSRNVQVSLVKNGVKILHTKDAYMSSEDQASGGIVLQLKLGDEVWLQVTGGERFNGLFADEDDDTTFTGFLLFSSP [P0C862] has measured percentage of EdU-negative not below 30%. Thanks!
Out: F

In: // inclusive: percentage of EdU-negative at least 30%? input: `MIPGGLSEAKPATPEIQEIVDKVKPQLEEKTNETYGKLEAVQYKTQVVAGTNYYIKVRAGDNKYMHLKVFKSLPGQNEDLVLTGYQVDKNKDDELTGF`
Out: F

In: Confirm if percentage of EdU-negative reported for the sequence MQAAWLLGALVVPQLLGFGHGARGAEREWEGGWGGAQEEEREREALMLKHLQEALGLPAGRGDENPAGTVEGKEDWEMEEDQGEEEEEEATPTPSSGPSPSPTPEDIVTYILGRLAGLDAGLHQLHVRLHALDTRVVELTQGLRQLRNAAGDTRDAVQALQEAQGRAEREHGRLEGCLKGLRLGHKCFLLSRDFEAQAAAQARCTARGGSLAQPADRQQMEALTRYLRAALAPYNWPVWLGVHDRRAEGLYLFENGQRVSFFAWHRSPRPELGAQPSASPHPLSPDQPNGGTLENCVAQASDDGSWWDHDCQRRLYYVCEFPF [Q9Y240] is 30% or above.
Out: F

In: Hello, I need to know if `MGFQKFSPFLALSILVLLQAGSLHAAPFRSALESSPADPATLSEDEARLLLAALVQDYVQMKASELEQEQEREGSSLDSPRSKRCGNLSTCMLGTYTQDFNKFHTFPQTAIGVGAPGKKRDMSSDLERDHRPHVSMPQNAN` has measured percentage of EdU-negative not below 30%. Thanks!
Out: F
